// data source = PubChem BioAssay (EPA / NIEHS)

read-out: JUN Transcription Factor, JUN (gene 3725); test: LTEA_HepaRG_JUN: Life Technologies and Expression Analysis (LTEA) Assay for JUN Transcription Factor using HepaRG (AID 2283513); conditions: mRNA level, 48 h; actives raise or lower the signal
Activity calls are given as the source filed them. Rule for the calls: active = hit-call score of the fitted dose curve at least 0.9, where 1 is the maximum; inactive = score below 0.9.
measuredQuantity: outcome

CCCCCCCCOC(=O)c1ccc(C(=O)OCCCCCCCC)c(C(=O)OCCCCCCCC)c1: inactive
OCCOCCO: inactive
Cc1cccc(N)c1N: inactive

###

Read-out: ABC Transporter (ABCB11), ABCB11 (gene 8647)
Experiment: LTEA_HepaRG_ABCB11: Life Technologies and Expression Analysis (LTEA) Assay for ABC Transporter (ABCB11) using HepaRG (AID 2283463)
Details: mRNA level, 48 h; actives raise or lower the signal
Method: LTEA_HepaRG is a cell based, multiplexed-readout assay that uses HepaRG, a human liver cell line, with measurements taken at 48 hours after chemical dosing on a 96-well plate.LTEA_HepaRG_ABCB11 is one of 102 assay component(s) measured in the LTEA HepaRG cell culture assay. It is a marker of Steatosis/NR mediated transport.Data from the assay component LTEA_HepaRG_ABCB11 was analyzed into 1 endpoint. […]
The source made the active and inactive calls. Rule for the calls: active = hit-call score of the fitted dose curve at least 0.9, where 1 is the maximum; inactive = score below 0.9.
Respond using exactly one of the listed classes: active, inactive

QUERY: Hi, do you know how Brc1ccc(Oc2ccccc2)cc1 came out in this test?
RESULT: inactive

QUERY: Hi, do you know how CC(C)(C)OOC(C)(C)CCC(C)(C)OOC(C)(C)C came out in this test?
RESULT: inactive

QUERY: Hi, do you know how CCN(CC)N=O came out in this test?
RESULT: inactive

QUERY: Hi, do you know how Cc1ccc(N=C=O)cc1N=C=O came out in this test?
RESULT: active

QUERY: Hi, do you know how O=C(Nc1ccccc1)c1ccccc1I came out in this test?
RESULT: active

QUERY: Hi, do you know how c1ccc(N=Nc2ccccc2)cc1 came out in this test?
RESULT: inactive

QUERY: Hi, do you know how O=P(OCCCl)(OCCCl)OCCCl came out in this test?
RESULT: inactive
